B1: CPEB3 Ribozyme (parent)
chain: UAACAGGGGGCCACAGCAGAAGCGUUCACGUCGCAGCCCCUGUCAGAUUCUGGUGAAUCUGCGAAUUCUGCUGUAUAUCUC

Variants of: B1
experiment summary: self-cleavage, relative activity (ratio to wild type); higher = more cleavage; in vitro, sequencing
Provide the reported self-cleavage of each item.

Prompt: Consider the variant U54C U60A and give its measured self-cleavage.
Response: 0.42

Prompt: Consider the variant A20G C27A and give its measured self-cleavage.
Response: 0.16

Prompt: Consider the variant U31C A65U and give its measured self-cleavage.
Response: 0.25

Prompt: Consider the variant A15G U54C and give its measured self-cleavage.
Response: 0.87

Prompt: Consider the variant U25C U31C and give its measured self-cleavage.
Response: 0.23

Prompt: Consider the variant U1C U78A and give its measured self-cleavage.
Response: 1.11

Prompt: Consider the variant G36U A65U and give its measured self-cleavage.
Response: 0.06

Prompt: Consider the variant U72A U78C and give its measured self-cleavage.
Response: 0.8

Prompt: Consider the variant U49A U67C and give its measured self-cleavage.
Response: 0.3

Prompt: Consider the variant U60A C81G and give its measured self-cleavage.
Response: 0.93

Prompt: Consider the variant U26C C40A and give its measured self-cleavage.
Response: 0.26
